- runDescription: Reversal of multidrug resistance assessed as effect on calcein accumulation in MDR-human 2780 AD cells at 2.5 ug/ml relative to control
- Assay type: functional
Below is a list of entries, each paired with its recorded Activity value.
Give the quantity in %, number only.

// below: answered compounds
>>> endpointvalue("CO[C@@H]1C[C@H](O[C@H]2CC[C@@]3(C)[C@H](CC[C@@]45O[C@@]46CC=C(C4=CC(=O)OC4)[C@@]6(C)CC[C@H]35)C2)O[C@H](C)[C@@H]1O")
89
>>> endpointvalue("CO[C@@H]1C[C@H](O[C@H]2CC[C@@]3(C)[C@H](CC[C@]4(O)[C@@H]3CC[C@]3(C)[C@@H](C5=CC(=O)OC5)CC[C@@]34O)C2)O[C@H](C)[C@@H]1O")
107
>>> endpointvalue("CC(=O)O[C@H]1C[C@]2(O)[C@@H]3CC[C@@H]4C[C@@H](O)CC[C@]4(C)[C@H]3CC[C@]2(C)[C@H]1C1=CC(=O)OC1")
100
>>> endpointvalue("CO[C@@H]1C[C@H](O[C@H]2CC[C@@]3(C)[C@H](CC[C@@H]4[C@@H]3CC[C@]3(C)[C@@H](C5=CC(=O)OC5)CC[C@]43O)C2)O[C@H](C)[C@@H]1O")
89
>>> endpointvalue("CO[C@@H]1C[C@H](O[C@H]2CC[C@@]3(C)[C@H](CC[C@@]45O[C@@]46CC[C@H](C4=CC(=O)OC4)[C@@]6(C)CC[C@H]35)C2)O[C@H](C)[C@@H]1O")
102

Exercise: For CO[C@H]1C[C@H](O[C@H]2CC[C@@]3(C)[C@H](CC[C@@H]4[C@@H]3CC[C@]3(C)[C@@H](C5=CC(=O)OC5)CC[C@]43O)C2)O[C@H](C)[C@@H]1O , what is its reported Activity?
Solution: 83

Exercise: Request the reported Activity associated with CO[C@@H]1C[C@H](O[C@H]2CC[C@@]3(C)[C@H](CC[C@@]45O[C@@]46C[C@H]4O[C@@]4(C4=CC(=O)OC4)[C@@]6(C)CC[C@H]35)C2)O[C@H](C)[C@@H]1O
Solution: 96

Exercise: GET /values?readout=Activity&item= CO[C@@H]1C[C@H](O[C@H]2CC[C@@]3(C)[C@@H](CC[C@@H]4[C@@H]3CC[C@]3(C)[C@@H](C5=CC(=O)OC5)[C@@H](OC(C)=O)C[C@]43O)C2)O[C@H](C)[C@@H]1O
Solution: 126

Exercise: Activity lookup needed for CO[C@@H]1C[C@H](O[C@H]2CC[C@@]3(C)[C@H](CC[C@@H]4[C@@H]3CC[C@]3(C)[C@@H](C5=CC(=O)OC5)[C@@H](OC(C)=O)C[C@]43O)C2)O[C@H](C)[C@@H]1O , thanks.
Solution: 77

Exercise: Which Activity is listed for CO[C@H]1C[C@H](O[C@H]2CC[C@@]3(C)[C@H](CC[C@@H]4[C@@H]3CC[C@]3(C)[C@@H](C5=CC(=O)OC5)[C@@H](OC(C)=O)C[C@]43O)C2)O[C@H](C)[C@@H]1O ?
Solution: 81

Exercise: Requested field: Activity. Item: CO[C@H]1C[C@H](O[C@H]2CC[C@@]3(C)[C@H](CC[C@@]45O[C@@]46CC=C(C4=CC(=O)OC4)[C@@]6(C)CC[C@H]35)C2)O[C@H](C)[C@@H]1O
Solution: 100

Exercise: What value of Activity has been recorded for this entry: C[C@]12CC[C@H](O)C[C@H]1CC[C@@H]1[C@@H]2CC[C@]2(C)[C@@H](C3=CC(=O)OC3)CC[C@]12O
Solution: 74
